For each of the compounds below, state its inhibition at 0.05 µM.
Target Under Test: FLT3 (Homo sapiens, UniProt P36888)
Sequence (P36888 27-993): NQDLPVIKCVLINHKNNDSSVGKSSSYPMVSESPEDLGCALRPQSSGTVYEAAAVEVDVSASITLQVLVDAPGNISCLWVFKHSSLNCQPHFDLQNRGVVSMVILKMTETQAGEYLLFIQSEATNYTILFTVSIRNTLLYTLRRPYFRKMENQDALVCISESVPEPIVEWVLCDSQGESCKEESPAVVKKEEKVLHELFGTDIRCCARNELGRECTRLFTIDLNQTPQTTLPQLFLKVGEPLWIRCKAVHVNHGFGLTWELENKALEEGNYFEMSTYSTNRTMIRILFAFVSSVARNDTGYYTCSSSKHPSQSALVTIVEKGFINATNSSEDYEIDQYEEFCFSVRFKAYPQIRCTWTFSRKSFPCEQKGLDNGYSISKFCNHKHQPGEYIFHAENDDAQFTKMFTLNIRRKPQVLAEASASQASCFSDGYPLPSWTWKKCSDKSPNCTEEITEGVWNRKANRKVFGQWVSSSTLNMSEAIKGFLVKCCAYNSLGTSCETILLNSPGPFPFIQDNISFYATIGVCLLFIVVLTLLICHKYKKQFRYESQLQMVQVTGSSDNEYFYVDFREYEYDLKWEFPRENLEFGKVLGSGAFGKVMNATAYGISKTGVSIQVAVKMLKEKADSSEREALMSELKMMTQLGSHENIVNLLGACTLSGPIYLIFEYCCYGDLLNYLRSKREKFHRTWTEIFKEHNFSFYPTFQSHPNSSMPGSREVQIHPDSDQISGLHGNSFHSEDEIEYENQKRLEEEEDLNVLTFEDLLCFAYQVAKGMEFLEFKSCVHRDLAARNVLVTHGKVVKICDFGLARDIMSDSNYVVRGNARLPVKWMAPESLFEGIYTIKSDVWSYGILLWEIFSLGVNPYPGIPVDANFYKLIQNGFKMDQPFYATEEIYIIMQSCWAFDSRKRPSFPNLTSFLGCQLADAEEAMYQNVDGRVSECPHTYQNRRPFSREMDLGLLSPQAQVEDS
Assay Comment: Z'-Lyte biochemical kinase assay (SelectScreen), FLT3
Cond: at 50 nM, in duplicate
# number then unit; no other words

Request: Please look up its inhibition at 0.05 µM: `COc1ccc2c(Oc3cccc(C(=O)NCc4ccncc4)c3C)ccnc2c1`
Response: 8%

Request: I would be grateful if you could share the reported inhibition at 0.05 µM for `CNc1ccc2c(Oc3cc(C(=O)NCc4ccncc4)ccc3F)ccnc2c1` .
Response: 9%

Request: Quick one: inhibition at 0.05 µM for `COc1cc2nccc(Oc3cccc(C(=O)NCc4ccccc4)c3)c2cc1OC` ?
Response: 37%

Request: May I ask what inhibition at 0.05 µM has been recorded for `COc1ccccc1CNC(=O)c1cc(F)cc(Oc2ccnc3cc(OC)c(OC)cc23)c1` ?
Response: 36%

Request: # lookup: inhibition at 0.05 µM of `O=C(NCc1cccc(F)c1)c1ccc(F)c(Oc2ccnc3ccccc23)c1`
Response: 37%

Request: Please look up its inhibition at 0.05 µM: `O=C(NCc1ccncc1)c1cccc(Oc2ccnc3ccccc23)c1`
Response: 16%

Request: What value of inhibition at 0.05 µM has been reported for the following compound? `COc1cc2nccc(Oc3cc(F)cc(C(=O)N[C@H](C)C4CCCCC4)c3)c2cc1OC`
Response: 26%

Request: Look up inhibition at 0.05 µM for this compound: `COc1ccc2c(Oc3cccc(C(=O)NCc4ccccc4)c3)ccnc2c1`
Response: 26%

Request: # inhibition at 0.05 µM lookup, item `COc1ccc2c(Oc3cc(C(=O)NCc4ccncc4)ccc3F)ccnc2c1`
Response: 6%

Request: Please give the measured inhibition at 0.05 µM for this compound: `O=C(NCc1cccnc1)c1cccc(Oc2ccnc3ccccc23)c1`
Response: 25%

Request: Reported inhibition at 0.05 µM, compound `COc1ccccc1CNC(=O)c1cccc(Oc2ccnc3ccccc23)c1` : ____
Response: 14%

Request: What does the data say about its inhibition at 0.05 µM? Entry: `O=C(NCC1CCCCC1)c1cccc(Oc2ccnc3ccccc23)c1`
Response: 6%

Request: Which inhibition at 0.05 µM value belongs to `CNc1ccc2c(Oc3cccc(C(=O)NCc4cccc(F)c4)c3C)ccnc2c1` ?
Response: 0%

Request: Entry `COc1cc2nccc(Oc3cc(C(=O)N[C@H](C)C4CCCCC4)ccc3F)c2cc1OC` : reported inhibition at 0.05 µM = ?
Response: 3%

Request: Look at this compound and give its reported inhibition at 0.05 µM. `O=C(NCc1ccc(F)cc1)c1cccc(Oc2ccnc3ccccc23)c1`
Response: 7%

Request: Can you share its inhibition at 0.05 µM? I mean this compound: `O=C(NCc1cncc(F)c1)c1cccc(Oc2ccnc3ccccc23)c1`
Response: -4%

Request: Given `Cc1c(Oc2ccnc3cc(N(C)C)ccc23)cccc1C(=O)NCc1cccc(F)c1` , state its recorded inhibition at 0.05 µM.
Response: 13%

Request: Find the recorded inhibition at 0.05 µM belonging to `CN(C)c1ccc2c(Oc3cccc(C(=O)NCc4ccncc4)c3)ccnc2c1` and report it.
Response: 8%

Request: If you can, please state the reported inhibition at 0.05 µM value of `COc1cc2nccc(Oc3cccc(C(=O)NCc4cccc(F)c4)c3C)c2cc1OC` .
Response: 19%

Request: Which value of inhibition at 0.05 µM has been reported for `O=C(NCc1cccc(F)c1)c1cccc(Oc2ccnc3ccccc23)c1` in the records?
Response: 18%

Request: Fill in: inhibition at 0.05 µM of `Cc1c(Oc2ccnc3ccccc23)cccc1C(=O)NCc1cccc(F)c1` is ___
Response: 8%

Request: Look up inhibition at 0.05 µM for this compound: `COc1ccc2c(Oc3cc(F)cc(C(=O)NCc4ccccc4OC)c3)ccnc2c1`
Response: 29%

Request: Form field: reported inhibition at 0.05 µM of `COc1cc2nccc(Oc3cccc(C(=O)N[C@H](C)c4ccccc4)c3)c2cc1OC`
Response: 44%

Request: Given `COc1cc2nccc(Oc3cc(C(=O)NCc4cccc(F)c4)ccc3F)c2cc1OC` , state its recorded inhibition at 0.05 µM.
Response: 27%

Request: I'd like to know its inhibition at 0.05 µM. The compound in question is `COc1cc2nccc(Oc3cccc(C(=O)NCCc4ccccc4)c3)c2cc1OC`
Response: 48%
